# Test system: RARb:RXRa (NR concentration 270 nM, RXRa partner concentration 90 nM)
# protocol: PBM binding z-score (relative to random genomic background probes); higher = stronger binding; sequences stand for … in GC…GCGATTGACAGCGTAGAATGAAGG
measurement-label: PBM binding z-score
Number only, no unit.

May I ask what PBM binding z-score has been recorded for `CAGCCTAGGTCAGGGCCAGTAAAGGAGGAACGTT` ? 3.49

Return reported PBM binding z-score; argument: `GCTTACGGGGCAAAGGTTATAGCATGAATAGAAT` 2.32

Consider the sequence shown here: `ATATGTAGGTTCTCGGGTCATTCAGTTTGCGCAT` What is its recorded PBM binding z-score? 2.15

// below: PBM binding z-score requested for another sequence
Record request: PBM binding z-score value, item `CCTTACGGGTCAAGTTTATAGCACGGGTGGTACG` 4.19

src = the supplement of paper PMC6555819
